Method Summary: Inhibition of L1 (unknown origin) expressed in Escherichia coli DH10B harboring pBC SK(+)-L1 assessed as potentiation of cefazolin-induced antibacterial activity by measuring cefazolin MIC at 1024 ug/ml after 12 hrs macrodilution broth method
# MIC values compiled below
Endpoint: MIC (µg/mL)

Compound Structure String: Cc1ccccc1NC(=O)CSCC(=O)[O-].[K+]
Measured: 16
--
Compound Structure String: O=C([O-])CSCC(=O)Nc1ccccc1Cl.[K+]
Measured: 16
--
Compound Structure String: CCc1ccccc1NC(=O)CSCC(=O)[O-].[K+]
Measured: 16
--
Compound Structure String: O=C([O-])CSCC(=O)NCc1ccccc1.[K+]
Measured: 16
--
Compound Structure String: O=C([O-])CSCC(=O)Nc1ccccc1.[K+]
Measured: 16
--
Compound Structure String: Cc1ccc(NC(=O)CSCC(=O)[O-])cc1.[K+]
Measured: 16
--
Compound Structure String: CC(C)CNC(=O)CSCC(=O)[O-].[K+]
Measured: 16
--
Compound Structure String: O=C([O-])CSCC(=O)Nc1ccc(C(=O)O)cc1.[K+]
Measured: 16
--
Compound Structure String: O=C([O-])CSCC(=O)Nc1ccccc1O.[K+]
Measured: 8
--
Compound Structure String: O=C([O-])CSCC(=O)Nc1ccc(Cl)cc1.[K+]
Measured: 16
--
Compound Structure String: CCCCc1ccc(NC(=O)CSCC(=O)[O-])cc1.[K+]
Measured: 2
--
Compound Structure String: O=C([O-])CSCC(=O)Nc1ccc([N+](=O)[O-])cc1.[K+]
Measured: 2

====

# inhibition values compiled below
Method Summary: Inhibition of ImiS (unknown origin) expressed in Escherichia coli BL21(DE3) at 100 uM using imipenem as substrate preincubated for 30 mins followed by substrate addition by UV-Visible spectrophotometric method relative to control
Endpoint: inhibition (%)

Compound Structure String: CCc1ccccc1NC(=O)CSCC(=O)[O-].[K+]
Reading Unit: %
Measured: 21
--
Compound Structure String: O=C([O-])CSCC(=O)Nc1ccc(C(=O)O)cc1.[K+]
Reading Unit: %
Measured: 87
--
Compound Structure String: O=C([O-])CSCC(=O)Nc1ccccc1[N+](=O)[O-].[K+]
Reading Unit: %
Measured: 21
--
Compound Structure String: O=C([O-])CSCC(=O)NCc1ccccc1.[K+]
Reading Unit: %
Measured: 21

====

Method Summary: Inhibition of IMP1 (unknown origin) expressed in Escherichia coli BL21(DE3) at 100 uM using cefazolin as substrate preincubated for 30 mins followed by substrate addition by UV-Visible spectrophotometric method relative to control
Rule: inhibition of 60% or more gives 1; anything lower gives -1.

Compound Structure String: Cc1ccccc1NC(=O)CSCC(=O)[O-].[K+]
Classification: -1

Compound Structure String: CC(C)(C)NC(=O)CSCC(=O)[O-].[K+]
Classification: 1

Compound Structure String: O=C([O-])CSCC(=O)Nc1ccccc1Cl.[K+]
Classification: -1

Compound Structure String: CCc1ccccc1NC(=O)CSCC(=O)[O-].[K+]
Classification: 1

Compound Structure String: O=C([O-])CSCC(=O)Nc1ccc(C(=O)O)cc1.[K+]
Classification: 1

Compound Structure String: O=C([O-])CSCC(=O)Nc1ccc(Cl)cc1.[K+]
Classification: -1

Compound Structure String: O=C([O-])CSCC(=O)NCc1ccccc1.[K+]
Classification: -1

Compound Structure String: O=C([O-])CSCC(=O)Nc1ccccc1O.[K+]
Classification: -1

Compound Structure String: O=C([O-])CSCC(=O)Nc1ccc([N+](=O)[O-])cc1.[K+]
Classification: -1

Compound Structure String: O=C([O-])CSCC(=O)Nc1ccccc1[N+](=O)[O-].[K+]
Classification: -1

Compound Structure String: CCCCNC(=O)CSCC(=O)[O-].[K+]
Classification: -1

Compound Structure String: O=C([O-])CSCC(=O)Nc1cccc(Cl)c1.[K+]
Classification: -1

Compound Structure String: Cc1ccc(NC(=O)CSCC(=O)[O-])cc1.[K+]
Classification: -1

Compound Structure String: O=C([O-])CSCC(=O)Nc1ccccc1.[K+]
Classification: -1

Compound Structure String: CCCCc1ccc(NC(=O)CSCC(=O)[O-])cc1.[K+]
Classification: 1

====

Method Summary: Inhibition of ImiS (unknown origin) expressed in Escherichia coli BL21(DE3) at 100 uM using imipenem as substrate preincubated for 30 mins followed by substrate addition by UV-Visible spectrophotometric method relative to control
Endpoint: inhibition

Compound Structure String: O=C([O-])CSCC(=O)Nc1cccc(Cl)c1.[K+]
Measured: 34%
--
Compound Structure String: CC(C)CNC(=O)CSCC(=O)[O-].[K+]
Measured: 23%
--
Compound Structure String: O=C([O-])CSCC(=O)Nc1ccccc1.[K+]
Measured: 18%
--
Compound Structure String: O=C([O-])CSCC(=O)Nc1ccccc1O.[K+]
Measured: 74%
--
Compound Structure String: Cc1ccc(NC(=O)CSCC(=O)[O-])cc1.[K+]
Measured: 52%
--
Compound Structure String: CCCCNC(=O)CSCC(=O)[O-].[K+]
Measured: 20%
--
Compound Structure String: O=C([O-])CSCC(=O)Nc1ccc(Cl)cc1.[K+]
Measured: 25%
--
Compound Structure String: O=C([O-])CSCC(=O)Nc1ccc([N+](=O)[O-])cc1.[K+]
Measured: 85%
--
Compound Structure String: CC(C)(C)NC(=O)CSCC(=O)[O-].[K+]
Measured: 21%
--
Compound Structure String: O=C([O-])CSCC(=O)Nc1ccccc1Cl.[K+]
Measured: 39%
--
Compound Structure String: CCCCc1ccc(NC(=O)CSCC(=O)[O-])cc1.[K+]
Measured: 29%
--
Compound Structure String: Cc1ccccc1NC(=O)CSCC(=O)[O-].[K+]
Measured: 24%

====

Method Summary: Inhibition of L1 (unknown origin) expressed in Escherichia coli BL21(DE3) at 100 uM using cefazolin as substrate preincubated for 30 mins followed by substrate addition by UV-Visible spectrophotometric method relative to control
# inhibition values compiled below

Compound Structure String: CCCCNC(=O)CSCC(=O)[O-].[K+]
Reading Unit: %
inhibition: 89
//
Compound Structure String: CCc1ccccc1NC(=O)CSCC(=O)[O-].[K+]
Reading Unit: %
inhibition: 92
//
Compound Structure String: O=C([O-])CSCC(=O)Nc1ccccc1.[K+]
Reading Unit: %
inhibition: 92
//
Compound Structure String: CC(C)(C)NC(=O)CSCC(=O)[O-].[K+]
Reading Unit: %
inhibition: 91
